Tested on: MV4.11
Test: area under dose-response curve (cell viability) (AUC (arbitrary, % viability x log concentration)); higher = less sensitive (more viable)
Conditions: 4 days
Counter-ions that a name gives are not always drawn.
area under dose-response curve overview
Respond numerically, and do not add a unit to the figure.

Examples with answers:
compound	area under dose-response curve
O=c1c(N=Nc2ccc(S(=O)(=O)O)cc2)c(-c2ccc([N+](=O)[O-])cc2)[nH]n1-c1ccccc1	676
CC(=O)c1c(C)c2cnc(Nc3ccc(N4CCNCC4)cn3)nc2n(C2CCCC2)c1=O	423
Nc1ccn([C@@H]2O[C@H](CO)[C@@H](O)[C@@H]2O)c(=O)n1 [Cytarabine HCl]	378
CC(C)CC(=O)Nc1n[nH]c2c1CN(C(=O)C1CCN(C)CC1)C2(C)C	352
CC[C@H](C)C(=O)O[C@H]1C[C@H](O)C=C2C=C[C@H](C)[C@H](CC[C@@H](O)C[C@@H](O)CC(=O)O)[C@H]21	699
C[C@]1(c2nc3c(C(N)=O)cccc3[nH]2)CCCN1	654

Ask | Entry COc1cc2c(Oc3ccc4[nH]c(C)cc4c3F)ncnc2cc1OCCCN1CCCC1 : reported area under dose-response curve = ?
Reply | 656

Ask | Quick one: area under dose-response curve of CC1=C(/C=C/C(C)=C/C=C/C(C)=C/C(=O)O)C(C)(C)CCC1 ?
Reply | 338
